- EXPERIMENTAL DETAILS: Confirmation screen for delayed death inhibitors of the malarial parasite plastid, 48 hour incubation; also: nearly all actives have a fitted effect of over 65% in size
- CONDITION NOTES: P. falciparum-infected erythrocytes, luciferase growth; series mostly up to 28.7 µM
Screen size: about 2,300 compounds; about 1,200 (52%) were called active. Roughly 34% stayed inconclusive and do not appear here. Calls follow the shape of the dose curve; as a rule, active = well fitted inhibition curve with a large enough effect; inconclusive = small, poorly fitted or top-dose-only effect, or effect the other way; inactive = no such curve, though single readings can be large or run the other way. So high a share suggests a set chosen from earlier hits. This is one part of the list.
Possible outcomes: true for active, false for inactive

MOLECULE	GROUP LABEL
COc1ccccc1CNC(=O)c1ccc(-c2ccccc2Cl)o1	true
C=CCC1(O)C(=O)N2C(=C1C(=O)OCC)c1ccc3ccccc3c1CC2(C)C (stereo unspecified)	true
COc1cc(OC)cc(C(=O)Nc2ccc3c(c2)CCCN3C(=O)c2cccs2)c1	true
COc1ccc2cc3cc(C(=O)Nc4ccc5c(c4)OCO5)oc3nc2c1	true
COCCCNC(=O)c1cc2cc3cc(OC)ccc3nc2o1	true
Cc1ccc2cc3cc(C(=O)NCCCN4CCCC4=O)oc3nc2c1	true
COc1ccc2nc3oc(C(=O)NCc4cccs4)cc3cc2c1	true
O=S(=O)(Nc1cccc2ncccc12)c1cccs1	true
COc1ccccc1NC(=S)NCc1cccs1	false
Cc1ccccc1C(=O)Nc1ccc2c(c1)CCCN2C(=O)c1cccs1	true
Cc1nn2c(Nc3ccccc3)c3c(nc2c1-c1ccccc1)CCC3	true

Origin of the recorded values: PubChem BioAssay AID504850
